Below, each entry is listed with its recorded CC50 at 24 h.
test: in vitro; assay type: cell-based; details: Chinese hamster, CC50 CHO
Give a bare numeral; the unit µM is implied.

Guide cases for CC50 at 24 h, answers given:
> print(dat)
                    substance.smiles  result
1    CC(C)NC(=O)Cn1cccc1[N+](=O)[O-]     321
2  O=C(Cn1cccc1[N+](=O)[O-])NC1CCCC1     303

## Task Please look up its CC50 at 24 h: "O=C(Cn1cccc1[N+](=O)[O-])Nc1cc(F)ccc1Br"
## Result 188

## Task Please do the same for "O=C(Cn1cccc1[N+](=O)[O-])Nc1ccccc1Cl" as well.
## Result 198

## Task Please do the same for "O=C(Cn1cccc1[N+](=O)[O-])NCc1cccc(C(F)(F)F)c1" as well.
## Result 185

## Task Please do the same for "O=C(Cn1cccc1[N+](=O)[O-])NCc1ccccc1" as well.
## Result 24.3

## Task Please do the same for "O=C(Cn1cccc1[N+](=O)[O-])Nc1ccc(Br)cc1" as well.
## Result 173

###

Below, each entry is listed with its recorded melting point.

> print(dat)
                          substance.smiles         result
1          CC(C)NC(=O)Cn1cccc1[N+](=O)[O-]  190 to 191 °C
2  O=C(Cn1cccc1[N+](=O)[O-])Nc1cc(F)ccc1Br  185 to 186 °C
3       O=C(Cn1cccc1[N+](=O)[O-])Nc1ccccc1  201 to 202 °C
4      O=C(Cn1cccc1[N+](=O)[O-])NCc1ccccc1  174 to 175 °C

## Task Please look up its melting point: "O=C(Cn1cccc1[N+](=O)[O-])NCc1cccc(C(F)(F)F)c1"
## Result 161 to 162 °C

###

Below, each entry is listed with its recorded CC50 at 24 h.
assay: in vitro; type: cell-based; settings: Chinese hamster, CC50 CHO
Give a bare numeral; the unit µM is implied.

Guide cases for CC50 at 24 h, answers given:
molecule	measurement-unit	CC50 at 24 h
COc1cccc2c1C(=O)c1c(O)c3c(c(O)c1C2=O)C[C@@](O)(C(=O)CO)C[C@@H]3O[C@H]1C[C@H](N)[C@H](O)[C@H](C)O1 [Doxorubicin, reference compound]	µM	4.6
O=C(Cn1cccc1[N+](=O)[O-])Nc1ccccc1	µM	262
O=C(Cn1cccc1[N+](=O)[O-])Nc1cccc(C(F)(F)F)c1	µM	156

Here is the next item to consider.
## Task Please look up its CC50 at 24 h: "COc1cccc(NC(=O)Cn2cccc2[N+](=O)[O-])c1"
## Result 260

###

Test system: Vero host cells
Assay: Cytotoxicity against Vero host cells in the T. cruzi intracellular assay
Type: cell-based
Conditions: Chlorocebus sabaeus; Vero host cells, 96h incubation, concentrations up to 50 µM; read-out: Vero cells EC50
Description: These new derivatives were evaluated in vitro against the intracellular T. cruzi strain X10/7-Silvio by determining their 50% efficacy concentration (EC50) and were compared to the reference anti-T. cruzi drug nifurtimox. […] Next, any remaining free trypomastigotes were washed away with serum-free MEM, and the infected Vero cells were harvested by trypsinisation. […] Images were analysed using the Columbus system (Perkin Elmer). […]
Below, each entry is listed with its recorded EC50.
Give a bare numeral; the unit µM is implied.

## Task Please look up its EC50: O=C(Cn1cccc1[N+](=O)[O-])Nc1ccc(Br)cc1 [Compound 16]
## Result 14.5
